// values below are reported IC50
Target Of Assay: CBP (Homo sapiens (Human), UniProt Q92793)
Sequence (Q92793 1085-1192): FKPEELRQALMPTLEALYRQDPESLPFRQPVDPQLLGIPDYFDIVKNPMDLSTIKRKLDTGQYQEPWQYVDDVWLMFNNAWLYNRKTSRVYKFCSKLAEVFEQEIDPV
Protocol Details: HTRF biochemical assay for CBP activity (TR-FRET, bromodomain)
Format: binding
Condition Summary: geometric mean, 10-point 3-fold dilution 33 μM to 1.7 nM, read-out: BROMO IC50 TRF TB CBP (μM gmean)

[
  {
    "Compound": "COC(=O)N1CCc2c(Cl)cc3c(nc([C@H]4CC[C@H](C(=O)O)CC4)n3CCc3ccccc3)c2C1 [Compound 154]",
    "Reported Endpoint": "IC50",
    "Meas Value": "0.001 to 0.01 µM"
  },
  {
    "Compound": "COC(=O)N1CCc2ccc3c(nc([C@H]4CC[C@H](C(=O)O)CC4)n3[C@H](C)Cc3cccnc3)c2C1 [Compound 111]",
    "Reported Endpoint": "IC50",
    "Meas Value": "0.001 to 0.01 µM"
  },
  {
    "Compound": "COC(=O)N1CCc2ccc3c(nc(C4CCCCC4)n3C[C@@H](C(=O)O)c3ccccc3)c2C1 [Compound 197]",
    "Reported Endpoint": "IC50",
    "Meas Value": "0.01 to 0.1 µM"
  }
]

In plain terms, COC(=O)N1CCc2ccc3c(nc([C@H]4CC[C@H](C(=O)O)CC4)n3[C@H](C)C[C@H]3CC[C@H](OC)CC3)c2C1 [Compound 287] has a documented IC50 of 0.01 to 0.1 µM

###

Target Of Assay: CBP (Homo sapiens (Human), UniProt Q92793)
Protocol Details: HTRF biochemical assay for CBP activity (TR-FRET, bromodomain)
Format: binding
Condition Summary: geometric mean, 10-point 3-fold dilution 33 μM to 1.7 nM, read-out: BROMO IC50 TRF TB CBP (μM gmean)
Reported Endpoint: IC50

[
  {
    "Compound": "COC[C@H](Cc1ccccc1)n1c2ccc3c(c2nc1[C@H]1CC[C@H](C(=O)O)CC1)CN(C(=O)OC)CC3 [Compound 299]",
    "IC50": "0.1 to 1 µM"
  }
]

# IC50 (compound: COC(=O)N1CCc2ccc3c(nc(C4CCCCC4)n3CC(C(=O)O)C3CCCCC3)c2C1 (centres unmarked) [Compound 126] ) is 0.001 to 0.01 µM

Entry COC(=O)N1CCc2ccc3c(nc(-c4cccc(C(C)(C)C(=O)O)c4)n3[C@@H](C)Cn3cc(Cl)cn3)c2C1 [Compound 185] , IC50 reported as 0.01 to 0.1 µM

IC50 in this record for COC(=O)N1CCc2ccc3c(nc([C@H]4C[C@@H](C(=O)O)C4)n3[C@@H](C)Cc3ccccc3C)c2C1 [Compound 130] : 0.001 to 0.01 µM

Input COC(=O)N1CCc2ccc3c(nc([C@H]4CC[C@H](C(=O)O)CC4)n3[C@@H](C)Cc3ccccc3)c2C1 [Compound 72] . Output IC50: 0.001 to 0.01 µM

COC(=O)N1CCc2ccc3c(nc(N4CCOCC4)n3[C@@H](C)Cc3cccc(C(=O)O)c3)c2C1 [Compound 182] yielded IC50 of 0.01 to 0.1 µM

Form field IC50, entry COC(=O)N1CCc2ccc3c(nc(N4CCC(C(=O)O)CC4)n3[C@H](C)Cc3cc(F)cc(F)c3)c2C1 [Compound 308] : 0.1 to 1 µM
